Hey, just so you know, these numbers are from PubChem BioAssay (NCI).

system: BT-549 breast; assay: NCI tumour cell line growth inhibition, 48 h
PARAMETER_MEASURED: GI50

Guide cases for GI50, answers given:
>>> test_value("COc1ccc(Cc2nc3cc(OC)c(OC)cc3c(=O)[nH]2)cc1")
"4.84 µM"
>>> test_value("C=C1CC/C=C(\\C)CC[C@H](C(=C)C)[C@@H](O)/C=C(/CO)CCC1O (some centres undefined)")
"48.2 µM"
>>> test_value("C=CCN=C(N/N=C/c1ccc([N+](=O)[O-])o1)NS(=O)(=O)c1cc(C(=O)Nc2ccccc2)c(Cl)cc1SCC(N)=O")
"10.4 µM"
>>> test_value("CNCc1cccc2c1OCCOCCOCCC(C)S(=O)(=O)c1ccc(cc1)-c1cnc(N)c(n1)C(=O)N2 (centres undefined)")
"1.53 µM"
>>> test_value("NC(N)=N/N=C(/c1ccccc1)c1ccccc1F")
"5.11 µM"

Lookup: Check the records and state GI50 for NC(N)=N/N=C/c1c(-c2ccncc2)nc2sc(Cl)cn12
Found: 10.3 µM

Lookup: Check the records and state GI50 for Clc1ccc2c(NCCCN3CCN(c4nc(N5CCOCC5)nc5ccccc45)CC3)ccnc2c1
Found: 1.64 µM

Lookup: Check the records and state GI50 for c1cncc(C2ONC3=NCCN32)c1 (centres undefined)
Found: 22.9 µM

Lookup: Check the records and state GI50 for Cn1ccnc1C(=O)/C=C/c1ccc(C(=O)Nc2c(F)c(F)c(F)c(F)c2F)cc1
Found: 1.43 µM

###

test system: NCI-H23 lung; test: NCI tumour cell line growth inhibition, 48 h; in the data active = GI50 below about 0.43 µM; inactive = the rest
Bench note: report the call from 1 (active), -1 (inactive)

Answered cases to consult:
>>> assigned_label("C#CC#CC#CC#CC#CC#CC#CC#CC[C@@H]1OC[C@@H](COC(=O)O[C@@H](C(=O)O[C@H]2C[C@@]3(O)[C@@H](OC(=O)c4ccccc4)[C@@H]4[C@]5(OC(C)=O)CO[C@@H]5C[C@H](O)[C@@]4(C)C(=O)[C@H](OC(C)=O)C(=C2C)C3(C)C)[C@@H](NC(=O)c2ccccc2)c2ccccc2)O1")
-1
>>> assigned_label("CNCc1cccc2c1OCCOCCOCCC(C)S(=O)(=O)c1ccc(cc1)-c1cnc(N)c(n1)C(=O)N2 (configuration not stated)")
-1
>>> assigned_label("C=C(Cl)[C@@](Cl)(CBr)CC[C@@H](Br)C(C)(C)Cl")
-1
>>> assigned_label("CCCCC[C@@H](C/C=C/CCC(=O)NC/C(=C/Cl)[C@H]1C(=O)C(C)(C)C(=O)[C@@H](C)[C@@]1(C)O)OC")
-1

Lookup: Which outcome did this test record for the compound CCSc1ncc(Br)c(Sc2nc(N)nc3nc[nH]c23)n1 ?
Found: -1

Lookup: Which outcome did this test record for the compound COc1cccc(C2C(C#N)=C(N)Oc3cc4c(cc32)OCO4)c1 (configuration not stated) ?
Found: 1

Lookup: Which outcome did this test record for the compound c1cncc(C2ONC3=NCCN32)c1 (configuration not stated) ?
Found: -1

###

system: HCT-15 colon; assay: NCI tumour cell line growth inhibition, 48 h
PARAMETER_MEASURED: GI50

Guide cases for GI50, answers given:
>>> test_value("Cn1ccnc1C(=O)/C=C/c1ccc(C(=O)Nc2c(F)c(F)c(F)c(F)c2F)cc1")
"1.11 µM"
>>> test_value("CCN(CC)CCOc1ccc2c(C)c(C(=O)OC)oc2c1C(=O)/C=C/c1ccc(OC)cc1")
"1.31 µM"
>>> test_value("COC(=O)[C@H](Cc1cn(C)cn1)NC(=O)[C@@H](NC(=O)Nc1cc(C(F)(F)F)cc(C(F)(F)F)c1)C(C)C")
"> 10 µM"
>>> test_value("COc1cc(N(CCC#N)CCC#N)ccc1/C(N=Nc1ccc(C(=O)O)cc1)=N/NC(=O)c1cc(Br)ccc1O")
"35.8 mg/L"
>>> test_value("CNCc1ccc(-c2[nH]c3cc(F)cc4c3c2CCNC4=O)cc1")
"35.8 µM"
>>> test_value("c1cncc(C2ONC3=NCCN32)c1 (configuration not stated)")
"11.5 µM"
>>> test_value("CCSc1ncc(Br)c(Sc2nc(N)nc3nc[nH]c23)n1")
"4.07 µM"
>>> test_value("O=c1nc2[nH]c3c(-c4n[nH]c(=O)[nH]c4=O)cccc3c2n[nH]1")
"> 100 µM"

Lookup: Check the records and state GI50 for O=C(C(=O)c1cc(Br)ccc1O)c1cc(Br)ccc1O
Found: 4.05 µM

Lookup: Check the records and state GI50 for N/C(=N\C(N)=N\c1nc2ccccc2s1)c1cnccn1
Found: 3.12 µM

Lookup: Check the records and state GI50 for CCCCCCCCCCCCOC1C(C(CC(=O)N2CCN(Cc3ccc4c(c3)OCO4)CC2)NS(=O)(=O)c2cc(Cl)cc(Cl)c2)OC2OC(C)(C)OC21 (configuration not stated)
Found: > 100 µM

Lookup: Check the records and state GI50 for NC(=O)c1ncn(C2OC(CO)C(O)C2O)c1N (configuration not stated)
Found: > 100 µM
